System: CYP2D6
test parameters: human
readout kind: 2 al (effect of 2 non-functional alleles)

[A] O=C(CCCN1CCC(O)(c2ccc(Cl)cc2)CC1)c1ccc(F)cc1
[B] CN(C)CCC=C1c2ccccc2COc2ccccc21 [doxepin]
// which entry has the larger 2 al (effect of 2 non-functional alleles) value, A or B ? In your reply, give the label of the chosen option.
B

----------
Tested on: CYP2D6
test parameters: human
readout kind: EM (%) dosing recommendation

Record CN1CCN2c3ncccc3Cc3ccccc3C2C1 (stereo not shown) . Reported EM (%) dosing recommendation: 99

Record CN(C)CCCC1(c2ccc(F)cc2)OCc2cc(C#N)ccc21 (stereo not shown) . Reported EM (%) dosing recommendation: 101

Record OCCN1CCN(CC/C=C2/c3ccccc3Sc3ccc(Cl)cc32)CC1 . Reported EM (%) dosing recommendation: 116

Record O=c1n(CCCN2CCN(c3cccc(Cl)c3)CC2)nc2ccccn12 . Reported EM (%) dosing recommendation: 110
